Item-by-item account of growth
test system: OVCAR-4 ovarian; assay: NCI-60 one-dose screen, 48 h (100 = growth as untreated, 0 = no growth, -100 = all killed); details: 10 µM
The panel holds about 83,000 compounds, 20% with a hit somewhere; the sample as a whole holds those more often.
Form entry: value (%) — number only.

Below, 3 molecules whose answers are already recorded.
>  <molecule>
Clc1ccc2c(NCCCNc3nccc(Nc4ccc(Br)cc4)n3)ccnc2c1

>  <result>
-9.2

$$$$
>  <molecule>
COc1ccc(CN2CCC(N3CCCC3=O)c3cc(Cl)ccc32)cc1 (centres undefined)

>  <result>
95.3

$$$$
>  <molecule>
COc1cc(-c2nnc(-c3c(-c4ccc(F)cc4)nc4ccccn34)o2)cc(OC)c1OC

>  <result>
69.5

$$$$

Let us examine a further case.
Output growth of Fc1ccc2nc(-c3nc(-c4ccccc4)n4ccccc34)[nH]c2c1
-71.2

----------
test system: M14 melanoma; experiment: NCI-60 one-dose screen, 48 h (100 = growth as untreated, 0 = no growth, -100 = all killed); settings: 10 µM
Compounds without any hit were thinned out: in the full panel of roughly 83,000, 20% have a hit.
Item-by-item account of growth
Form entry: value (%) — number only.

>  <compound>
COc1ccc(Cn2c(C(N)=O)cc3c2-c2nc(N)ncc2CCC3)cc1

>  <result>
96.7

$$$$
>  <compound>
ClC(Cl)(Cl)c1nc2nccnc2[nH]1

>  <result>
103

$$$$
>  <compound>
CCN(CC)CCOc1nc2ccc(OC)cc2c2c1-c1ccc(OC)cc1C2=O

>  <result>
-83.3

$$$$
>  <compound>
CCN(CC)CCOc1nc2cc(OC)c(OC)cc2c2c1-c1ccc(OC)cc1C2=O

>  <result>
85.9

$$$$
>  <compound>
O=C(Nc1ccc(Cl)c(Cl)c1)Nc1c(Oc2ccc(Cl)c(Cl)c2)ccc(Cl)c1S(=O)(=O)O

>  <result>
19.3

$$$$
>  <compound>
C#Cc1ccc(-n2c(/C=C/c3ccc4ccccc4n3)nc3ncccc3c2=O)cc1

>  <result>
-19

$$$$
>  <compound>
CC1(C)CCC(=NNC(N)=S)CC1

>  <result>
113

$$$$
>  <compound>
CCOC(=O)C(CSC(c1ccccc1)(c1ccccc1)c1ccccc1)NC(=O)C(CSC(c1ccccc1)(c1ccccc1)c1ccccc1)NC(c1ccccc1)(c1ccccc1)c1ccccc1 (stereo not given)

>  <result>
111

$$$$
>  <compound>
Cc1[nH]nc2c1C(c1cnn(C)c1)C(C#N)=C(N)O2 (stereo not given)

>  <result>
100

$$$$

Let us examine a further case.
Output growth of Nc1nc(-c2ccccc2Cl)cc(-c2ccc(Cl)cc2Cl)n1
53.5

----------
Item-by-item account of growth
test system: T-47D breast; assay: NCI-60 one-dose screen, 48 h (100 = growth as untreated, 0 = no growth, -100 = all killed); conditions: 10 µM
The panel holds about 83,000 compounds, 20% with a hit somewhere; the sample as a whole holds those more often.
Form entry: value (%) — number only.

Below, 8 compounds whose answers are already recorded.
>  <compound>
O=C1OCC2=C1C(c1cccc(Cl)c1)c1cc3c(cc1N2CCO)CCC3 (stereo unspecified)

>  <endpoint_label>
growth

>  <readout_unit>
%

>  <result>
66.1

$$$$
>  <compound>
CCCCN(CCCC)c1cc(C(=O)CCCCCN)c2ccccc2n1

>  <endpoint_label>
growth

>  <readout_unit>
%

>  <result>
92.9

$$$$
>  <compound>
COc1ccc(/C=C/C(C)=N/OCC(=O)O)cc1

>  <endpoint_label>
growth

>  <readout_unit>
%

>  <result>
93.5

$$$$
>  <compound>
CCCCCCN1CCN(Cc2ccc(N(CC)CC)cc2)C(=O)C1=O

>  <endpoint_label>
growth

>  <readout_unit>
%

>  <result>
25.5

$$$$
>  <compound>
COc1cc2nc(Nc3cccc(NC(C)=O)c3)nc(N)c2cc1OC

>  <endpoint_label>
growth

>  <readout_unit>
%

>  <result>
90.1

$$$$
>  <compound>
O=C(O)CC(Cl)C(Cl)CC(=O)O (stereo unspecified)

>  <endpoint_label>
growth

>  <readout_unit>
%

>  <result>
99.6

$$$$
>  <compound>
COc1ccc(-c2nnc(-c3c(-c4ccccc4)nc4ncccn34)o2)cc1OC

>  <endpoint_label>
growth

>  <readout_unit>
%

>  <result>
87.2

$$$$
>  <compound>
Cc1cccc(NC2=C(C#N)C(=O)NC3(CCCC3)S2)c1

>  <endpoint_label>
growth

>  <readout_unit>
%

>  <result>
102

$$$$

Output growth of Cc1cccc(Cl)c1NC(=O)c1ccc2nc(NC(=O)NC3CCN(C)CC3)sc2c1
66

Output growth of C#Cc1ccc(-n2c(/C=C/c3ccc(O)cc3)nc3ncccc3c2=O)cc1
67.4

Output growth of O=C1NC(=O)c2ncccc21
102

The measurements presented in this section are drawn from PubChem BioAssay (NCI).
